# run-description: Half life in human liver microsomes
# Assay type: ADME, Microsome
Hi there, I'd appreciate the recorded half-life for every entry that follows.

Find the recorded half-life belonging to `C=CC(=O)N1CCC[C@@H](n2nc(-c3cccc(C(=O)Nc4ccc(C(C)C)c(C)c4)c3)c3c(N)ncnc32)C1` and report it.
5 min

Suppose we examine the compound `C=CC(=O)N1CCC[C@@H](n2nc(-c3cccc(C(=O)Nc4ccc(C(C)C)cc4)c3)c3c(N)ncnc32)C1` ; what half-life value has been reported?
< 3 min

Given `C=CC(=O)N1CCC[C@@H](n2nc(-c3cccc(C(=O)NCc4ccc(C(C)(C)C)cc4)c3)c3c(N)ncnc32)C1` , state its recorded half-life.
< 5 min
